Source listed as patent US7388025B2.

Molecular target: human GABA A receptor α5β3γ2 (Homo sapiens, UniProt P18507+P31644)
Construct: expressed in transfected cells; host or cells: HEK293 cells, transiently transfected; membranes prepared from them
Experiment: [3H]flumazenil competition binding, HEK293 cells expressing human GABA A α5β3γ2 receptors
Settings: human α5β3γ2 in HEK293 (transiently transfected), 0.5 nM [3H]flumazenil, mean of two determinations; read-out: Ki[nM] hα5
Procedure: Membrane Preparation and Binding Assay The affinity of compounds at GABA A receptor subtypes was measured by competition for [3H]flumazenil (85 Ci/mmol; Roche) binding to HEK293 cells expressing rat (stably transfected) or human (transiently transfected) receptors of composition α1β3γ2, α2β3γ2, α3β3γ2 and α5β3γ2. […]
measure.name: Ki (nM)

Example cases with answers are listed next.
// Ki (human GABA A receptor α5β3γ2 (Homo sapiens, UniProt P18507+P31644)) for "Cc1onc(-c2ccc(Br)cc2)c1C(=O)c1cc2cccc(OCc3ncnn3C)c2o1" = 15.1

// Ki (human GABA A receptor α5β3γ2 (Homo sapiens, UniProt P18507+P31644)) for "COc1cccc2cc(C(=O)c3c(-c4ccc(Br)cc4)noc3C)oc12" = 3.7

[A] Cc1cc(COc2cccc3cc(C(=O)c4c(-c5ccc(Br)cc5)noc4C)oc23)on1
[B] Cc1onc(-c2ccc(Br)cc2)c1C(=O)c1cc2cccc(O)c2o1
When the recorded Ki values are compared, which is smaller: that of A or that of B ? Give the label under which the chosen entry appears.
B
(B: 17.4 nM, A: 63.8 nM)

[1] Cc1onc(-c2ccccc2)c1C(=O)c1cc2cc(Br)ccc2o1
[2] Cc1onc(-c2ccccc2)c1C(=O)c1cc2cc(OC(F)(F)F)ccc2o1
[3] Cc1cc(COc2cccc3cc(C(=O)c4c(-c5ccccc5)noc4C)oc23)on1
Put the items in order so that reported Ki rises from first to last. Return the labels ranked in the requested order, please.
2, 3, 1
(2: 10.1 nM, 3: 18.9 nM, 1: 41.6 nM)

[A] Cc1onc(-c2ccccc2)c1C(=O)c1cc2cccc(OCc3cccnc3)c2o1
[B] Cc1onc(-c2ccccc2)c1C(=O)c1cc2c(ccc3ccccc32)o1
When the recorded Ki values are compared, which is smaller: that of A or that of B ? Give the label under which the chosen entry appears.
B
